Biological target: DNA topoisomerase 1 (Homo sapiens) (UniProt P11387)
Sequence (whole entry): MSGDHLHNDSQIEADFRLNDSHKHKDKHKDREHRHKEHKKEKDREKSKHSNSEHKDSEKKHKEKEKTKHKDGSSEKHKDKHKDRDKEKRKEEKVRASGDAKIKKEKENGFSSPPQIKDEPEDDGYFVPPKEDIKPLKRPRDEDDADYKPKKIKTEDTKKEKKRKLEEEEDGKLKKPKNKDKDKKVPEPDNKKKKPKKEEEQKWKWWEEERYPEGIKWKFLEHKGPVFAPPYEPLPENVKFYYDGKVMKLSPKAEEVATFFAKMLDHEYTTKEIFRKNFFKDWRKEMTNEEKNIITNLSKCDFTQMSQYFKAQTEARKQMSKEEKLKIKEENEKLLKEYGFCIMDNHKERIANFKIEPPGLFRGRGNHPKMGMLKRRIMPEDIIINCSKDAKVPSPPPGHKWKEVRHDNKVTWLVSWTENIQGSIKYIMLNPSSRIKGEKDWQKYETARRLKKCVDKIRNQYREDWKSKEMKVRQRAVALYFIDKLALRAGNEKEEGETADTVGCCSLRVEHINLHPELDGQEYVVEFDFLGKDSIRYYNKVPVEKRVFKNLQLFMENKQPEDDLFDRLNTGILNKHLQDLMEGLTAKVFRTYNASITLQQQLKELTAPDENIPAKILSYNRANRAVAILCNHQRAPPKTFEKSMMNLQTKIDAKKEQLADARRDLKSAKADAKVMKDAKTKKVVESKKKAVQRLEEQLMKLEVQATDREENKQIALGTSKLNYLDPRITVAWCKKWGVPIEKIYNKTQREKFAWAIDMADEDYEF
Assay: Inhibition of human topoisomerase I assessed as DNA unwinding using DNA pBR322 as substrate at 2 uM incubated for 30 mins by ethidium bromide staining based agarose gel electrophoresis
Recorded metric: inhibition (%)
Numeric only. Scale: %

Cc1ccc(Nc2cccc(Cl)c2C)c(C(=O)NCc2ccc(O)c(F)c2)c1 ... 19.7
Cc1c(Cl)cccc1N(C)c1ccccc1C(=O)NCc1ccc(O)cc1 ... 25.9
Cc1c(Cl)cccc1Nc1ccc(F)cc1C(=O)NCc1ccc(O)c(O)c1 ... 45.4
O=C(NCCc1ccc(O)cc1)c1ccccc1Nc1ccccc1 ... 13.8

Task: API: value(readout=inhibition, system=DNA topoisomerase 1 (Homo sapiens) (UniProt P11387)) for record Cc1c(Cl)cccc1Nc1ccc(F)cc1C(=O)NCc1ccc(O)c(F)c1
Result: 41.1

Task: API: value(readout=inhibition, system=DNA topoisomerase 1 (Homo sapiens) (UniProt P11387)) for record O=C(NCCCc1ccc(O)cc1)c1ccccc1Nc1ccccc1
Result: 0

Task: API: value(readout=inhibition, system=DNA topoisomerase 1 (Homo sapiens) (UniProt P11387)) for record Cc1c(Cl)cccc1N(C)c1ccccc1C(=O)NCc1ccc(O)c(F)c1
Result: 22.3

Task: API: value(readout=inhibition, system=DNA topoisomerase 1 (Homo sapiens) (UniProt P11387)) for record O=C(Nc1ccc(O)cc1)c1ccccc1Nc1ccccc1
Result: 8.56

Task: API: value(readout=inhibition, system=DNA topoisomerase 1 (Homo sapiens) (UniProt P11387)) for record Cc1cccc(Nc2ccccc2C(=O)NCc2ccc(O)cc2)c1C
Result: 19.3

Task: API: value(readout=inhibition, system=DNA topoisomerase 1 (Homo sapiens) (UniProt P11387)) for record Cc1ccc(Cl)c(Nc2ccccc2C(=O)NCc2ccc(O)cc2)c1Cl
Result: 5.57

Task: API: value(readout=inhibition, system=DNA topoisomerase 1 (Homo sapiens) (UniProt P11387)) for record Cc1c(Cl)cccc1Nc1ccccc1C(=O)NCc1ccccc1O
Result: 15.2
